- System: biotinyl-Met-oxazolone
- Experiment Notes: self-aminoacylation, catalytic enhancement (BMO) (fold over background); higher = more active; k-Seq, kA / k0A0; sequences stand for … in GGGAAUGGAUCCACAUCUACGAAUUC…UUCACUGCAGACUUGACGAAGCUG
This sample holds only a part of the variants without activity.
Would you please tag the item fulfilled when its self-aminoacylation is 1 or above, and not fulfilled when it is below?

Consider the following illustrative entries.
INSERT INTO assay_data (chain_sequence, assigned_class) VALUES
  ('CCACACGUCAAGCCAUCGGUC [Fam1B.1 aminoacylation ribozyme variant]', 'fulfilled'),
  ('CCACACCUCAUGCAAUCGGUC [Fam1B.1 aminoacylation ribozyme variant]', 'not fulfilled'),
  ('AUUCACCUAGAUCAUGGGGUG [Fam2.2 aminoacylation ribozyme variant]', 'fulfilled'),
  ('CUACUUCAAACCAACGGUCUG [Fam1A.1 aminoacylation ribozyme variant]', 'not fulfilled'),
  ('AUUCACCUAGGUCAUCGGCUC [Fam2.2 aminoacylation ribozyme variant]', 'fulfilled');

Hi, just wondering whether GUGACCCUGGUCAUCGAGUGA [Fam2.1 aminoacylation ribozyme variant] shows self-aminoacylation of 1 or higher.
fulfilled

# bool: self-aminoacylation of AAGUUUGCUGAUAGUCGCUAG [Fam3.1 aminoacylation ribozyme variant] >= 1
fulfilled

Check if self-aminoacylation >= 1 (inclusive). Item: AUUCACCCAGGGCAUCGGGUG [Fam2.2 aminoacylation ribozyme variant]
fulfilled
